Test system: P388
Test: Inhibitory activity was tested against P388 cells
Type: functional, cell-based
Conditions: Mus musculus
parameter: IC50 (µM)

record.smiles: O=C1CCCCC/C1=C\c1ccc([N+](=O)[O-])cc1
study.system: P388
assay.result: 25.2
--
record.smiles: CN(C)c1ccc(/C=C2\CCCCCC2=O)cc1
study.system: P388
assay.result: 18.8

---

System: CCRF-CEM
Test: Inhibitory activity was tested against CEM cells
Type: functional, cell-based
Settings: Homo sapiens
pIC50: −log10 of the molar value.
Entries and their pIC50 values follow.

Some compounds with recorded pIC50:
record.smiles: O=C1/C(=C/c2ccc([N+](=O)[O-])cc2)Cc2ccccc21
study.system: CCRF-CEM
parameter: pIC50
assay.result: < 3.30
//
record.smiles: O=C1/C(=C/c2ccc([N+](=O)[O-])cc2)CCc2ccccc21
study.system: CCRF-CEM
parameter: pIC50
assay.result: < 3.30
//
record.smiles: Cc1ccc(/C=C2\CCCCCC2=O)cc1
study.system: CCRF-CEM
parameter: pIC50
assay.result: < 3.30

Please find the next compound below.
Requested read-out: pIC50. Entry: COc1cccc(/C=C2\Cc3ccccc3C2=O)c1 < 3.30
